The entries below are paired with their reported relative viability.
System: ABC-1
Test: relative viability (nuclei count vs DMSO), 5 days (fraction); higher = more cells survive
Conditions: first compound 0.08 µM
Form rule: numeric answer, no unit written next to it.

Answered examples (3):
compound	relative viability
CCCCCCCCCCCC1=C(O)C(=O)C=C(O)C1=O [Embelin] + O=C(CCCCCCC(=O)Nc1ccccc1)NO [Vorinostat] (partner 1 µM)	1.04
CCCCCCCCCCCC1=C(O)C(=O)C=C(O)C1=O [Embelin] + C[C@]1(O)C[C@@H](c2nc(-c3ccc4ccc(-c5ccccc5)nc4c3)c3c(N)nccn32)C1 [Linsitinib] (partner 1 µM)	0.863
CCCCCCCCCCCC1=C(O)C(=O)C=C(O)C1=O [Embelin] + CS(=O)(=O)N1CCN(Cc2cc3nc(-c4cccc5[nH]ncc45)nc(N4CCOCC4)c3s2)CC1 [Pictilisib] (partner 1 µM)	0.876

Query (compound): CCCCCCCCCCCC1=C(O)C(=O)C=C(O)C1=O [Embelin] + Cc1nc(Nc2ncc(C(=O)Nc3c(C)cccc3Cl)s2)cc(N2CCN(CCO)CC2)n1 [Dasatinib] (partner 0.075 µM) ; field requested: relative viability
0.575

Data provenance: the supplement of paper PMC10307832
